- Tested on: influenza virus B/Victoria strain
- experimental_details: microbe, parasite or virus in culture
- Type: cell-based
- measurement_context: influenza virus B (Victoria strain), MDCK cells; read-out: EC50
value_kind: EC50

Consider the compound NC(=O)c1ncn([C@@H]2O[C@H](CO)[C@@H](O)[C@H]2O)n1 [Ribavirin, reference compound] and give its measured EC50.
20.6 µM

====

- Tested on: MCF-7/ADR
- experimental_details: Cytotoxicity CCK-8 assay, MCF-7/ADR
- Assay type: cell-based
- measurement_context: Homo sapiens, NCI/ADR-RES
# IC50 per record follows

[
  {
    "compound": "CC(C)[C@@H](C)/C=C/[C@@H](C)[C@H]1CC[C@H]2C3=CC(=O)O[C@@]3(O)CC[C@]12C [Compound 33, demethylincisterol A3]",
    "value_kind": "IC50",
    "result": "> 50 µM"
  }
]

Consider the compound COc1cccc2c1C(=O)c1c(O)c3c(c(O)c1C2=O)C[C@@](O)(C(=O)CO)C[C@@H]3O[C@H]1C[C@H](N)[C@H](O)[C@H](C)O1 [Doxorubicin, reference compound] and give its measured IC50.
35.2 µM

Same lookup for O=C1NCCc2c1[nH]c1ccccc21 [Compound 9, 1,2,3,4-tetrahydro-1-oxo-β-carboline] , please.
> 50 µM

Hey, just so you know, these numbers are from paper PMC11944884.
